Documented IC50 across a set of compounds
tested on: U87MG tumour cells; assay: Test of in vitro proliferation of U87MG tumour cells; assay type: cell-based; conditions: Homo sapiens, U-87 MG, 72 h, U87MG cells, 72 hours; read-out: U87 Cell Proliferation IC50
PROPERTY_LABEL: IC50 (nM)

COMPOUND | RESULT_VALUE
CN1CC(C)(C)Oc2nc(N3C4CCC3COC4)nc(-c3ccc(NC(=O)Nc4ccncc4)cc3)c2C1=O [Example 68] | 82
CCN1CC(C)(C)Oc2nc(N3CC4CCC(C3)O4)nc(-c3ccc(NC(=O)Nc4ccc(CN5CCCCC5)cc4)cc3)c2C1=O [Example 203] | 43
CCN1CC(C)(C)Oc2nc(N3CC4CCC(C3)O4)nc(-c3ccc(NC(=O)Nc4ccc(OC)cn4)cc3)c2C1=O [Example 44] | 220
CCN1CC(C)(C)Oc2nc(N3CC4CCC(C3)O4)nc(-c3ccc(NC(=O)Nc4ccncc4F)c(F)c3)c2C1=O [Example 76] | 367
CCN1CC(C)(C)Oc2nc(N3CC4CCC(C3)O4)nc(-c3ccc(NC(=O)Nc4cccnc4)cc3)c2C1=O [Example 112] | 154
CCN1CC(C)(C)Oc2nc(N3CC4CCC(C3)O4)nc(-c3ccc(NC(=O)OCCO)cc3F)c2C1=O [Example 246] | 1600
COCCN1CC(C)(C)Oc2nc(N3CCOC[C@@H]3C)nc(-c3ccc(NC(=O)Nc4cccc(OC(F)F)c4)cc3)c2C1=O [Example 216] | 514
